Recorded values, source ChEMBL document CHEMBL5058577.

System: Fibroblast
Test: Multiplex assay against human fibroblast
Type: toxicity, cell-based
Experimental conditions: 48 h, 1 µM, compound concentration 1 uM, replicate 2
// values below are reported Population Mitotic Cells (%)
# number only, unit % dropped from output

Molecule	Observation type	Reported measurement
COc1ccc2[nH]c(I)c(CCNC(C)=O)c2c1 [IODOMELATONIN]	Population Mitotic Cells (%)	57
O=C(Nc1cc(-c2ccccc2)nn1-c1ccccc1F)c1ccc([N+](=O)[O-])cc1	Population Mitotic Cells (%)	44
Cc1ccc(OCC(O)C(C)NC(C)C)c2c1CCC2.Cl (centres undefined)	Population Mitotic Cells (%)	65

Next:
**Q:** Would you mind telling me what Population Mitotic Cells (%) value was observed for CN1C[C@H](C(=O)N[C@]2(C)O[C@@]3(O)[C@@H]4CCCN4C(=O)[C@H](Cc4ccccc4)N3C2=O)C[C@@H]2c3cccc4[nH]cc(c34)C[C@H]21.CS(=O)(=O)O [DIHYDROERGOTAMINE MESYLATE] ?
**A:** 46
